Where do these numbers come from? They come from patent US11214803B2.

tested on: Yap1 mRNA; assay: Antisense inhibition of human Yap1 in A-431 cells by cEt gapmers, single dose (Example 1, RTS4814); assay type: cell-based; conditions: A-431 cells, 5,000 cells per well, free uptake, 2,000 nM modified oligonucleotide, approx. 48 hours, RTS4814, normalized to RIBOGREEN; Table 3
Strand notation (5' to 3'): a small letter for the sugar, then the base; units joined by * are phosphorothioate-linked, units joined directly phosphodiester-linked; [ ] holds rarer units or linkages, { } end groups; capitals alone tell only the bases. k = constrained ethyl (cEt); [5mC] = 5-methylcytosine; d = 2'-deoxy (DNA)
For each record, write down the corresponding YAP1 (% UTC).
The answer is to be given in % UTC; state only the numeric part.

Value lookup for YAP1 (% UTC); key = 715594 (antisense kA*kT*kA*dT*dT*dT*d[5mC]*dT*dT*dT*dG*dG*d[5mC]*kA*kG*kA) [Compound 715594]
39

Value lookup for YAP1 (% UTC); key = 715540 (kT*kG*kA*dA*dG*dA*dA*d[5mC]*dT*dA*dT*dT*dT*k[5mC]*k[5mC]*kT; antisense) [Compound 715540]
82

Value lookup for YAP1 (% UTC); key = 715516 (k[5mC]*k[5mC]*kT*dA*dT*dG*dA*dG*dT*d[5mC]*dA*dA*d[5mC]*k[5mC]*kT*kG; antisense) [Compound 715516]
77

Value lookup for YAP1 (% UTC); key = 715519 (kT*kT*k[5mC]*d[5mC]*dA*d[5mC]*dT*d[5mC]*dA*dA*dG*dT*dT*kA*k[5mC]*kA; antisense) [Compound 715519]
96

Value lookup for YAP1 (% UTC); key = 715567 (kG*kG*kT*dA*dG*dG*dA*dT*dA*dA*dA*dT*dG*kA*kA*kT; antisense) [Compound 715567]
99

Value lookup for YAP1 (% UTC); key = 715471 (antisense kT*kA*kT*d[5mC]*dT*dA*dG*d[5mC]*dT*dT*dG*dG*dT*kG*kG*k[5mC]) [Compound 715471]
36

* * *

For each record, write down the corresponding % UTC (Yap1 mRNA).
system: Yap1 mRNA; test: Dose-dependent inhibition of human Yap1 in SNU-449 cells (Example 9, RTS36584); assay type: cell-based; conditions: 500.0 nM, free uptake, approximately 48 hours
Strand notation (5' to 3'): a small letter for the sugar, then the base; units joined by * are phosphorothioate-linked, units joined directly phosphodiester-linked; [ ] holds rarer units or linkages, { } end groups; capitals alone tell only the bases. e = 2'-O-(2-methoxyethyl) (MOE); k = constrained ethyl (cEt); [5mC] = 5-methylcytosine; d = 2'-deoxy (DNA); m = 2'-O-methyl
Put your answer as a value accompanied by its unit after it.

% UTC (Yap1 mRNA) of 1198554 (kT*kT*kA*dG*dA*dG*dT*dA*dT*dG*dT*dG*kG*k[5mC]*kA*eA; antisense) [compound 1198554] on Yap1 mRNA?
22 % UTC

% UTC (Yap1 mRNA) of 1198267 (kA*kG*dT*dG*dT*dA*dT*dG*dT*d[5mC]*dA*eG*eA*eA*kG*kA; antisense) [compound 1198267] on Yap1 mRNA?
15 % UTC

% UTC (Yap1 mRNA) of 1198382 (kT*dT*dA*dG*dA*dG*dT*dA*dT*dG*dT*kG*eG*k[5mC]*eA*kA; antisense) [compound 1198382] on Yap1 mRNA?
36 % UTC

% UTC (Yap1 mRNA) of 1198352 (kT*kG*kT*dA*dT*dG*dT*d[5mC]*dA*dG*dA*dA*kG*eA*kG*eT; antisense) [compound 1198352] on Yap1 mRNA?
10 % UTC

% UTC (Yap1 mRNA) of 1198875 (kA*kA*dA*dG*dT*dG*dT*dA*dT*dG*dT*k[5mC]*eA*kG*eA*kA; antisense) [compound 1198875] on Yap1 mRNA?
4 % UTC

% UTC (Yap1 mRNA) of 1197193 (AGGATGCATGGTTTTT; chemistry not fully specified) [compound 1197193] on Yap1 mRNA?
24 % UTC

% UTC (Yap1 mRNA) of 1200861 (kT*kT*kA*dA*dA*mG*dT*dG*dT*dA*dT*dG*dT*k[5mC]*kA*kG; antisense) [compound 1200861] on Yap1 mRNA?
17 % UTC

% UTC (Yap1 mRNA) of 1198746 (kG*e[5mC]*kA*d[5mC]*dT*dT*dT*dT*dA*d[5mC]*dA*dT*eT*eA*kG*kG) [compound 1198746] on Yap1 mRNA?
9 % UTC

% UTC (Yap1 mRNA) of 1197270 (TTAAAGTGTATGTCAG; cEt gapmer with 2'-OMe nucleoside, phosphorothioate, further chemistry not given here) [compound 1197270] on Yap1 mRNA?
8 % UTC

% UTC (Yap1 mRNA) of 1198615 (kT*kT*kA*dA*dA*dG*dT*dG*dT*dA*dT*dG*kT*k[5mC]*kA*eG) [compound 1198615] on Yap1 mRNA?
5 % UTC

% UTC (Yap1 mRNA) of 1097247 (kT*kA*kA*dA*dG*dT*dG*dT*dA*dT*dG*dT*d[5mC]*kA*kG*kA; antisense) [compound 1097247] on Yap1 mRNA?
8 % UTC

% UTC (Yap1 mRNA) of 1197312 (kT*kG*kT*dA*mU*dG*dT*d[5mC]*dA*dG*dA*dA*dG*kA*kG*kT; antisense) [compound 1197312] on Yap1 mRNA?
34 % UTC

% UTC (Yap1 mRNA) of 1198935 (kG*kA*dT*dT*dT*dA*dG*dG*dA*dT*dG*k[5mC]*dA*kT*dG*kG; antisense) [compound 1198935] on Yap1 mRNA?
23 % UTC

% UTC (Yap1 mRNA) of 1197217 (kT*kT*kA*dA*dA*dG*dT*dG*dT*dA*dT*dG*dT*k[5mC]*kA*kG) [compound 1197217] on Yap1 mRNA?
14 % UTC

% UTC (Yap1 mRNA) of 1198412 (kT*dT*dA*dG*dG*dA*dT*dG*d[5mC]*dA*dT*kG*eG*kT*eT*kT; antisense) [compound 1198412] on Yap1 mRNA?
33 % UTC

% UTC (Yap1 mRNA) of 1200820 (kG*kG*kA*dA*dG*mA*dT*d[5mC]*dT*dG*dA*dA*dA*k[5mC]*kT*k[5mC]; antisense) [compound 1200820] on Yap1 mRNA?
36 % UTC

% UTC (Yap1 mRNA) of 1198570 (kG*k[5mC]*kA*d[5mC]*dT*dT*dT*dT*dA*d[5mC]*dA*dT*kT*kA*kG*eG) [compound 1198570] on Yap1 mRNA?
16 % UTC

% UTC (Yap1 mRNA) of 1198409 (kA*dG*dT*dG*d[5mC]*dT*dT*dT*dG*dG*dA*kA*eG*kA*eT*k[5mC]; antisense) [compound 1198409] on Yap1 mRNA?
45 % UTC

% UTC (Yap1 mRNA) of 1198422 (k[5mC]*dT*dT*dA*dT*dA*dT*dG*dG*dT*dT*kT*eT*kG*eT*kG) [compound 1198422] on Yap1 mRNA?
30 % UTC

% UTC (Yap1 mRNA) of 1200857 (kA*kG*kT*dG*dT*mA*dT*dG*dT*d[5mC]*dA*dG*dA*kA*kG*kA; antisense) [compound 1200857] on Yap1 mRNA?
8 % UTC

% UTC (Yap1 mRNA) of 1198268 (kA*kA*dG*dT*dG*dT*dA*dT*dG*dT*d[5mC]*eA*eG*eA*kA*kG; antisense) [compound 1198268] on Yap1 mRNA?
17 % UTC

% UTC (Yap1 mRNA) of 1198243 (kG*kA*dT*dT*dT*dA*dG*dG*dA*dT*dG*e[5mC]*eA*eT*kG*kG; antisense) [compound 1198243] on Yap1 mRNA?
10 % UTC

% UTC (Yap1 mRNA) of 1198787 (kA*eG*kT*dG*dT*dA*dT*dG*dT*d[5mC]*dA*dG*eA*eA*kG*kA; antisense) [compound 1198787] on Yap1 mRNA?
6 % UTC

% UTC (Yap1 mRNA) of 1197269 (kT*kA*kA*dA*mG*dT*dG*dT*dA*dT*dG*dT*d[5mC]*kA*kG*kA; antisense) [compound 1197269] on Yap1 mRNA?
7 % UTC

% UTC (Yap1 mRNA) of 1198439 (AGTGTATGTCAGAAGA; sugar, 5-methylcytosine, phosphorothioate modifications, further chemistry not given here) [compound 1198439] on Yap1 mRNA?
5 % UTC

% UTC (Yap1 mRNA) of 1198805 (kA*kT*dT*dG*dT*d[5mC]*dT*d[5mC]*dA*dT*dG*k[5mC]*e[5mC]*kT*eT*kA; antisense) [compound 1198805] on Yap1 mRNA?
20 % UTC
